biological target: T1, human MSLN protein endogenously expressed on OVCAR3 tumor cells (human, UniProt Q13421 296-598); experiment: FACS on OVCAR3 cells;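 also: flow cytometry binding of test antibodies to cells, 2 h incubation on ice, readout as cell mean fluorescence intensity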
T1 construct: whole, on cells; Endogenous target on OVCAR3 cells; kept apart from the recombinant full-length construct; also called mesothelin
T1 sequence (Q13421 other isoform, or with tags, fused parts or gaps): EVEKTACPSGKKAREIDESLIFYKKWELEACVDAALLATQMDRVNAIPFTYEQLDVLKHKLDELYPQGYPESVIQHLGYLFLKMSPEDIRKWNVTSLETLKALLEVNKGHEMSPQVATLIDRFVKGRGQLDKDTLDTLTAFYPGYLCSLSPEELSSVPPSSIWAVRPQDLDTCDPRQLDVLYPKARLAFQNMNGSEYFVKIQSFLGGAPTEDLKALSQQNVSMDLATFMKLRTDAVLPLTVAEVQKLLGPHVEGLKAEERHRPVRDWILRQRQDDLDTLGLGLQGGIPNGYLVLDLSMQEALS
reported_property: EC50

**Q:** Recorded EC50 for S009-F7.44.20 (antibody, human IgG1, kappa, V domains shown, human-murine chimeric antibody, human IgG1/kappa constant regions) VH: EVQLQQSGPELVKPGASVKIPCKASGYTFTDYNMDWVKQSHGKSLEWIGDINPSTGGTIYNQKFNGKATLTEDKSASTVYMEFRSLTSDDTAVYYCARRRIGTGYFDVWGTGTTVTVSS VL: QIVLTQSPALMSASPGEKVTLTCSASSSVISSYLSWYQQKPGSSPKLLIYRTSNLASGVPARFSGSGSGTSYSLTISSMEAEDAASYFCHQWSSFPYTFGGGTKLEIKR , please?
**A:** 0.05 nM

**Q:** Proceed to S009-F7.33.24 (antibody, human IgG1, kappa, V domains shown, human-murine chimeric antibody, human IgG1/kappa constant regions) VH: QVQLQQPGTELVKPGASVKLSCKASGYTFTSYWMHWVKQRPGQGLEWIGNVNPSNGGSNYNEKFKNKATLTVDKSSSTADMQLNSLTSEDSAVYYCAPHYIGSRPGFAYWGQGTLVTVSG VL: DIVMTQSQKFMSTSVGDRVSVTCKASQNVGTNIAWYQQKPGQSPKALIYSASYRYSGVPDRFTGSGSGTDFTLTITNVQSEDLAEYFCQQYNSYPLTFGGGTKVEIKR
**A:** 0.15 nM

**Q:** Proceed to S009-F7.69.8 (antibody, human IgG1, kappa, V domains shown, human-murine chimeric antibody, human IgG1/kappa constant regions) VH: EVHLQQSGPELVKPGASVRIPCKASGYTFTDYNMDWVKQSHGKSLEWIGDINPDNGGTIYTQKFKGKATLTVDKSSSTAYMELRSLTSEDTAVYYCARRLHYYGSSGLDYWGQGTTLTVSS VL: DIQMTQSPASLSAYVGETVTITCRASGNIHNYLAWYQQKQGKSPQLLVYNAKTLADGVPSRFSGSGSGTQYSLKINSLQPEDFGSYYCQHFWSTVWTFGGGTKLEIKR
**A:** 0.36 nM
